This collection of values is drawn from patent US11421001B2.

Catalogue of half-life at 10 µM readings, one per entry.
procedure.text: Plasma stability, human plasma
Format: in vitro ADME
assay.context: read-out: Stability human Plasma t1/2
Positions of bridges follow the written chain, without caps; N, C: chain ends. Non-standard residues stand in square brackets, D forms with d. Residues, ends and D or L forms follow the SMILES beside them. Dab = NCC[C@H](N)C(=O)O
readout.name: half-life at 10 µM

compound	reported
C[C@@H]1NC(=O)[C@H](Cc2c[nH]cn2)NC(=O)[C@H](Cc2ccc(O)cc2)NC(=O)[C@@H]2CCCN2C(=O)[C@H]2CCCN2C(=O)[C@H](CCCCN)NC(=O)[C@H](CCC(N)=O)NC(=O)[C@H](Cc2ccc(O)cc2)NC(=O)[C@@H]2CSSC[C@H](NC1=O)C(=O)N[C@@H](CO)C(=O)N[C@@H](C)C(=O)N1CCC[C@@H]1C(=O)N[C@@H](CCN)C(=O)N[C@@H](CCCNC(=N)N)C(=O)N[C@@H](Cc1ccc(O)cc1)C(=O)N2	> 4 h
C[C@@H]1NC(=O)[C@H](CO)NC(=O)[C@@H]2CSSC[C@H](NC(=O)[C@H](Cc3ccc(O)cc3)NC(=O)[C@H](CCCNC(=N)N)NC(=O)[C@H](CCN)NC(=O)[C@H]3CCCN3C1=O)C(=O)N[C@@H](Cc1ccc(O)cc1)C(=O)N[C@@H](CCC(N)=O)C(=O)N[C@@H](CCCCN)C(=O)N1CCC[C@@H]1C(=O)N1CCC[C@H]1C(=O)N[C@@H](Cc1ccc(O)cc1)C(=O)N[C@@H](Cc1c[nH]cn1)C(=O)N[C@@H](Cc1ccc(O)cc1)C(=O)N2 [Example 2] (cyclo(YHYCSA[dP][Dab]RYCYQK[dP]P); disulfide 4-11)	> 5 h
